This collection of values is drawn from patent US10358434B2.

Reported values of Adrenal gland/kidney ratio of radioactivity accumulation for individual entries
Assay: In vivo kinetics experiment (radioactivity distribution)
Set-up: species or system Wistar male rat
Details: 10 min after administration; rat i.v.; mean ± SD
No unit in the answer, please; the number alone is enough.

FCCn1c(-c2cncc(Cn3ccnc3)c2)nc2ccc([123I])cc21 [[^123I] 604] | 4.89
FCCn1c(-c2cncc(Cn3cncc3[123I])c2)nc2cc(F)c(Cl)cc21 [[^123I] 610] | 14.48
COc1cc([123I])cc2c1nc(-c1cncc(Cn3ccnc3)c1)n2C1CC1 [[^123I] 609] | 7.38

Entry CCn1c(-c2cncc(Cn3ccnc3)c2)nc2ccc([123I])cc21 [[^123I] 608] , Adrenal gland/kidney ratio of radioactivity accumulation reported as 4.95

Entry Fc1cc2nc(-c3cncc(Cn4ccnc4)c3)n(Cc3ccc([123I])cc3)c2cc1Cl [[^123I] 605] , Adrenal gland/kidney ratio of radioactivity accumulation reported as 2.61

Entry CC(C)n1c(-c2cncc(Cn3ccnc3)c2)nc2ccc([123I])cc21 [[^123I] 606] , Adrenal gland/kidney ratio of radioactivity accumulation reported as 10.11

Entry COC(=O)c1cncn1[C@H](C)c1ccc(I)cc1 [[^123I] IMTO, (R)-[^123I]iodometomidate, reference compound] , Adrenal gland/kidney ratio of radioactivity accumulation reported as 31.76

Entry Cn1c(-c2cncc(Cn3ccnc3)c2)nc2ccc([123I])cc21 [[^123I] 607] , Adrenal gland/kidney ratio of radioactivity accumulation reported as 5.73

====

Assay: In vivo kinetics experiment (radioactivity distribution)
Design: species or system Wistar male rat
Settings: rat, caudal vein, 30 min after administration
Reported values of Radioactivity distribution Lung for individual entries
Remember to follow the number with its unit.

Below, each entry is followed by its recorded Radioactivity distribution Lung result.
Fc1cc2nc(-c3cncc(Cn4ccnc4)c3)n(CC[18F])c2cc1Br [[^18F] 200] | 0.48 ± 0.04 % ID/g
FCCn1c(-c2cncc(Cn3ccnc3)c2)nc2cc(F)c([123I])cc21 [[^123I] 400] | 0.76 % ID/g
Fc1cc2nc(-c3cncc(Cn4ccnc4)c3)n(CCC[18F])c2cc1Cl [[^18F] 500] | 0.44 ± 0.02 % ID/g
[123I]c1ccc2nc(-c3cncc(Cn4ccnc4)c3)n(C3CC3)c2c1 [[^123I] 602] | 0.76 ± 0.04 % ID/g
[123I]c1ccc2nc(-c3cncc(Cn4ccnn4)c3)n(C3CC3)c2c1 [[^123I] 603] | 0.97 ± 0.10 % ID/g

Entry Fc1cc2nc(-c3cncc(Cn4ccnc4)c3)n(CC[18F])c2cc1Cl [[^18F] 100] , Radioactivity distribution Lung reported as 0.43 ± 0.07 % ID/g

====

Reported values of Radioactivity distribution Femur for individual entries
Assay: In vivo kinetics experiment (radioactivity distribution)
Parameters: species or system Wistar male rat
Settings: 10 min after administration; rat i.v.; mean ± SD
Lab book: enter the figure in % ID/g, no units written.

FCCn1c(-c2cncc(Cn3cncc3[123I])c2)nc2cc(F)c(Cl)cc21 [[^123I] 610] | 3.25
CCn1c(-c2cncc(Cn3ccnc3)c2)nc2ccc([123I])cc21 [[^123I] 608] | 0.82
COc1cc([123I])cc2c1nc(-c1cncc(Cn3ccnc3)c1)n2C1CC1 [[^123I] 609] | 0.37
Fc1cc2nc(-c3cncc(Cn4ccnc4)c3)n(Cc3ccc([123I])cc3)c2cc1Cl [[^123I] 605] | 0.51
FCCn1c(-c2cncc(Cn3ccnc3)c2)nc2ccc([123I])cc21 [[^123I] 604] | 0.85
CC(C)n1c(-c2cncc(Cn3ccnc3)c2)nc2ccc([123I])cc21 [[^123I] 606] | 0.59

Now let's try a different one.
Entry Cn1c(-c2cncc(Cn3ccnc3)c2)nc2ccc([123I])cc21 [[^123I] 607] , Radioactivity distribution Femur reported as 0.86

====

Assay: In vivo kinetics experiment (radioactivity distribution)
Set-up: species or system Wistar male rat
Details: 60 min after administration; rat i.v.; mean ± SD
Reported values of Radioactivity distribution Muscle (lower limbs) for individual entries
Remember to follow the number with its unit.

CCn1c(-c2cncc(Cn3ccnc3)c2)nc2ccc([123I])cc21 [[^123I] 608] | 0.15 ± 0.03 % ID/g
Fc1cc2nc(-c3cncc(Cn4ccnc4)c3)n(Cc3ccc([123I])cc3)c2cc1Cl [[^123I] 605] | 0.16 ± 0.01 % ID/g
COc1cc([123I])cc2c1nc(-c1cncc(Cn3ccnc3)c1)n2C1CC1 [[^123I] 609] | 0.11 ± 0.00 % ID/g
CC(C)n1c(-c2cncc(Cn3ccnc3)c2)nc2ccc([123I])cc21 [[^123I] 606] | 0.12 ± 0.01 % ID/g
Cn1c(-c2cncc(Cn3ccnc3)c2)nc2ccc([123I])cc21 [[^123I] 607] | 0.11 ± 0.02 % ID/g

Entry FCCn1c(-c2cncc(Cn3ccnc3)c2)nc2ccc([123I])cc21 [[^123I] 604] , Radioactivity distribution Muscle (lower limbs) reported as 0.14 ± 0.01 % ID/g

Entry FCCn1c(-c2cncc(Cn3cncc3[123I])c2)nc2cc(F)c(Cl)cc21 [[^123I] 610] , Radioactivity distribution Muscle (lower limbs) reported as 0.13 ± 0.01 % ID/g

Entry COC(=O)c1cncn1[C@H](C)c1ccc(I)cc1 [[^123I] IMTO, (R)-[^123I]iodometomidate, reference compound] , Radioactivity distribution Muscle (lower limbs) reported as 0.16 ± 0.02 % ID/g

====

Reported values of Radioactivity distribution Stomach for individual entries
Test: In vivo kinetics experiment (radioactivity distribution)
Set-up: species or system Wistar male rat
Settings: rat, caudal vein, 30 min after administration
Remember to follow the number with its unit.

Below, each entry is followed by its recorded Radioactivity distribution Stomach result.
[123I]c1ccc2nc(-c3cncc(Cn4ccnn4)c3)n(C3CC3)c2c1 [[^123I] 603] | 0.61 ± 0.14 % ID/g
Fc1cc2nc(-c3cncc(Cn4ccnc4)c3)n(CCC[18F])c2cc1Cl [[^18F] 500] | 1.11 ± 0.14 % ID/g
Fc1cc2nc(-c3cncc(Cn4ccnc4)c3)n(CC[18F])c2cc1Br [[^18F] 200] | 0.56 ± 0.06 % ID/g
Fc1cc2nc(-c3cncc(Cn4ccnc4)c3)n(CC[18F])c2cc1Cl [[^18F] 100] | 0.73 ± 0.11 % ID/g
[123I]c1ccc2nc(-c3cncc(Cn4ccnc4)c3)n(C3CC3)c2c1 [[^123I] 602] | 2.24 ± 0.39 % ID/g

Now let's try a different one.
Entry FCCn1c(-c2cncc(Cn3ccnc3)c2)nc2cc(F)c([123I])cc21 [[^123I] 400] , Radioactivity distribution Stomach reported as 2.24 % ID/g

====

Assay: In vivo kinetics experiment (radioactivity distribution)
Parameters: species or system Wistar male rat
Conditions: rat, caudal vein, 10 min after administration
Description: Each of Compounds [^18F] 100, [^18F] 200, [^123I] 400, [^18F] 500, and [^123I] 601 to 610 obtained by the methods described in Examples 2, 4, 7, 9, 11, 13, 15, 17, 19, 21, 23, 25, 27, and 29, or [^123I] […] From the thus sacrificed rat, blood and organs (heart, lung, stomach, liver, spleen, small intestine, large intestine, kidney, bladder (including urine), muscle (lower limbs), brain, adrenal gland, testis, fat, femur, or thyroid gland) were excised, and the weights thereof were then measured. […]
Short version: Radioactivity distribution Spleen at least 5 % ID/g is MET, less is NOT MET.

FCCn1c(-c2cncc(Cn3ccnc3)c2)nc2cc(F)c([123I])cc21 [[^123I] 400] | MET
[123I]c1ccc2nc(-c3cncc(Cn4ccnc4)c3)n(C3CC3)c2c1 [[^123I] 602] | MET

Please look at the following compound next.
Kindly determine if Radioactivity distribution Spleen recorded for Fc1cc2nc(-c3cncc(Cn4ccnc4)c3)n(CC[18F])c2cc1Cl [[^18F] 100] is above or exactly 5 % ID/g.
NOT MET

====

Test: In vivo kinetics experiment (radioactivity distribution)
Set-up: species or system Wistar male rat
Conditions: 30 min after administration; rat i.v.; mean ± SD
Procedure: Each of Compounds [^18F] 100, [^18F] 200, [^123I] 400, [^18F] 500, and [^123I] 601 to 610 obtained by the methods described in Examples 2, 4, 7, 9, 11, 13, 15, 17, 19, 21, 23, 25, 27, and 29, or [^123I] […] From the thus sacrificed rat, blood and organs (heart, lung, stomach, liver, spleen, small intestine, large intestine, kidney, bladder (including urine), muscle (lower limbs), brain, adrenal gland, testis, fat, femur, or thyroid gland) were excised, and the weights thereof were then measured. […]
Measure name: Radioactivity distribution Liver (% ID/g)
Lab book: enter the figure in % ID/g, no units written.

Below, each entry is followed by its recorded Radioactivity distribution Liver result.
CCn1c(-c2cncc(Cn3ccnc3)c2)nc2ccc([123I])cc21 [[^123I] 608] | 1.08
Cn1c(-c2cncc(Cn3ccnc3)c2)nc2ccc([123I])cc21 [[^123I] 607] | 0.94
FCCn1c(-c2cncc(Cn3ccnc3)c2)nc2ccc([123I])cc21 [[^123I] 604] | 1.89
COc1cc([123I])cc2c1nc(-c1cncc(Cn3ccnc3)c1)n2C1CC1 [[^123I] 609] | 4.36

Now let's try a different one.
Entry CC(C)n1c(-c2cncc(Cn3ccnc3)c2)nc2ccc([123I])cc21 [[^123I] 606] , Radioactivity distribution Liver reported as 2.59
